# Assayed System: 5-lipoxygenase (Homo sapiens)
# Construct: Human PMN's (5 x 10⁶ cells/0.5 mL) in pH 7.2 phosphate buffer; endogenous in cells; host or cells: human polymorphonuclear leukocytes (PMN)
# Sequence (P09917 whole entry): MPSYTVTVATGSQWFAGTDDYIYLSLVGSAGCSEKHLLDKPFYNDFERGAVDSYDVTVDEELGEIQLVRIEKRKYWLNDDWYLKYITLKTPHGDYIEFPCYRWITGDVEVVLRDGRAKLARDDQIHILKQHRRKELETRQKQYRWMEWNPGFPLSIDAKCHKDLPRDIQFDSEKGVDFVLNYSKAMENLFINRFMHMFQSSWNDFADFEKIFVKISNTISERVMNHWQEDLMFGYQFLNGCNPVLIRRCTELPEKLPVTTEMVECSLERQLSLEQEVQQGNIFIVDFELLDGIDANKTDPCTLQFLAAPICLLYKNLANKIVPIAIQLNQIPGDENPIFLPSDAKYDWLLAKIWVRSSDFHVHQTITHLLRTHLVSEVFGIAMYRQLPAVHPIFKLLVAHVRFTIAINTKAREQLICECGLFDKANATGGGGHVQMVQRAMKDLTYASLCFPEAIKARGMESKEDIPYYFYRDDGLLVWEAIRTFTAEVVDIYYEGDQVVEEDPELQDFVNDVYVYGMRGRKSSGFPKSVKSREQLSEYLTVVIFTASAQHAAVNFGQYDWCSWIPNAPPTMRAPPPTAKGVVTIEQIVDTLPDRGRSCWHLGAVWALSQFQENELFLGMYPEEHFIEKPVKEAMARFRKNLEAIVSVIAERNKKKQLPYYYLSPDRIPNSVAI
# Experiment: Inhibition of 5-lipoxygenase (5-HETE biosynthesis) in human polymorphonuclear leukocytes
# Assay type: cell-based
# Condition Context: human PMN's, 5-HETE band vs control; test concentration 1 microM; read-out: Inhibition of 5-LO % at 1 M
# Protocol: Inhibition of 5-Lipoxygenase in Human Polymorphonuclear Leukocytes (PMN's) The inhibition of 5-lipoxygenase is measured by determining whether and to what extent test compounds inhibit the amount of 5-HETE biosynthesized by human PMN's. 5-HETE biosynthesis serves as a marker for arachidonic acid metabolism by 5-lipoxygenase. […]
Measurement Kind: inhibition at 1 µM
Report the figure along with its unit, number first.

Name the recorded inhibition at 1 µM for COc1cc(C=Cc2ccsc2)cc(C)c1O [Compound 1p] . 70%

How about COc1cc(C=Cc2cccs2)cc(C)c1O [Compound 1d] ? 65%

How about CCc1cc(C=Cc2cccs2)cc(CC)c1O [Compound 1i] ? 70%

How about Cc1cc(C=Cc2ccncc2)cc(C)c1O [Compound 1y] ? 46%

How about COc1ccc(C=Cc2cc(C(C)C)c(O)c(C(C)C)c2)cc1OC [Compound 1aw] ? 57%

How about COc1cc(C=Cc2cccs2)cc(OC)c1O [Compound 1n] ? 78%

How about COc1cc(C=Cc2ccsc2)cc(OC)c1O [Compound 1q] ? 77%

How about CCc1cc(C=Cc2ccsc2)cc(OC)c1O [Compound 1r] ? 82%

How about Cc1cc(C=Cc2ccc(Cl)s2)cc(C)c1O [Compound 1b] ? 77%

How about Cc1cc(C=Cc2ccsc2)cc(Cl)c1O [Compound 1s] ? 75%

How about CCc1cc(C=Cc2cccnc2)cc(CC)c1O [Compound 1aa] ? 59%

###

# Test system: 5-lipoxygenase
# Experiment: Inhibition of antigen-induced, SRS-A mediated bronchioconstriction in conscious guinea pigs
# Type: in vivo
# Condition Context: i.p. in 5% Tween 80 suspension, 30mg/kg, 60 minutes before antigen challenge; % inhibition of the decrease in Cdyn
Measurement Kind: % Inhibition of Bronchioconstriction (%)
// units = %; emit number, no label

Name the recorded % Inhibition of Bronchioconstriction for CCCc1cc(C=Cc2cccs2)cc(OC)c1O . 57

How about Cc1cc(C=Cc2ccsc2)cc(C)c1O ? 26

How about Cc1cc(C=Cc2cccnc2)cc(C)c1O ? 39

How about Cc1cc(C=Cc2cccs2)cc(C)c1O ? 75

How about CCc1cc(C=Cc2cccs2)cc(OC)c1O ? 51

How about CC(C)c1cc(C=Cc2cccnc2)cc(C(C)C)c1O ? 34

How about COc1cc(C=Cc2cccs2)cc(C)c1O ? 41

###

# Assayed System: 5-lipoxygenase (Homo sapiens)
# Construct: Human PMN's (5 x 10⁶ cells/0.5 mL) in pH 7.2 phosphate buffer; endogenous in cells; host or cells: human polymorphonuclear leukocytes (PMN)
# Experiment: Inhibition of 5-lipoxygenase (5-HETE biosynthesis) in human polymorphonuclear leukocytes
# Assay type: cell-based
# Condition Context: human PMN's, 5-HETE band vs control; test concentration 1 microM; read-out: Inhibition of 5-LO % at 1 M
Returns t if the recorded inhibition at 1 µM is greater than or equal to 70%, and f otherwise.

# check: inhibition at 1 µM of CCc1cc(C=Cc2cccs2)cc(OC)c1O [Compound 1e] is greater than or equal to 70% t

How about COc1cc(C=Cc2cccnc2)cc(C)c1O [Compound 1z] ? f

How about COc1cc(C=Cc2ccc(Cl)s2)cc(C)c1O [Compound 1g] ? t

How about CC(C)c1cc(C=Cc2ccc(F)cc2)cc(C(C)C)c1O [Compound 1ax] ? f
